Origin of the recorded values: PubChem BioAssay

Target: Follistatin-related protein 3 (Homo sapiens) (UniProt O95633)
Sequence (O95633 whole entry, looked up): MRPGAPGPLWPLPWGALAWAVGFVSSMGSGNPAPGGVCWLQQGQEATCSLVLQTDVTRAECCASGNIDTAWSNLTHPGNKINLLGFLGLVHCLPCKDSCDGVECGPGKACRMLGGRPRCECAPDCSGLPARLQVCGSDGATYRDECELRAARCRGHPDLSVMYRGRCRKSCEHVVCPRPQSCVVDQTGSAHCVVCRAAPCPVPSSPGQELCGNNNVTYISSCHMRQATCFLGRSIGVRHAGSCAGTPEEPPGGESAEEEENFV
Experiment: FSTL3 binders on small-molecule microarrays, primary screen, biochemical, small-molecule microarray, 635 nm fluorescence (AID 1105);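 note: score merges emission near 667 nm and signal to noise per printed spot across three slides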
Details: FSTL3 binding, higher = more signal
Endpoint label: composite z-score

Compound: CO[C@@H]1COC(=O)[C@H](CCSC)NC(=O)CC=C[C@@H](C)COC(=O)[C@@H]2CCCN2C(=O)CC=C[C@H]1C
Measured on: Follistatin-related protein 3 (Homo sapiens) (UniProt O95633)
Quantitative readout: 0.909
--
Compound: CCOC(=O)[C@H](CC(C)C)NC(=O)CCC1CC(OC(=O)NCc2ccc3c(c2)OCO3)CC2(CCCC(COC(=O)NCCOC)O2)O1 (stereo partly specified)
Measured on: Follistatin-related protein 3 (Homo sapiens) (UniProt O95633)
Quantitative readout: 0.864
--
Compound: COc1ccc(O[C@H]2C=C[C@@H](c3ccccc3)O[C@@H]2COC(=O)CCC(C)=NOC[C@@H](O)COCc2ccco2)cc1
Measured on: Follistatin-related protein 3 (Homo sapiens) (UniProt O95633)
Quantitative readout: -2.9
--
Compound: C[C@H]1CC[C@H]2C(=O)OC(COc3ccc(C(C)(C)C)cc3)CN2[C@@H]1c1ccc(Br)cc1 (stereo partly specified)
Measured on: Follistatin-related protein 3 (Homo sapiens) (UniProt O95633)
Quantitative readout: 0.58
--
Compound: CC(C)CON=C1[C@H]2CCn3c(=O)n(C)c(=O)n3[C@H]2[C@H](O)[C@@H]2O[C@H]12
Measured on: Follistatin-related protein 3 (Homo sapiens) (UniProt O95633)
Quantitative readout: 0.703
--
Compound: O=C1[C@H]2[C@H]3[C@H](O)[C@H](O)CC(=NO[C@@H]4O[C@H](CO)[C@@H](O)[C@H](O)[C@H]4O)[C@H]3CC[C@H]2C(=O)N1c1ccc(F)cc1F
Measured on: Follistatin-related protein 3 (Homo sapiens) (UniProt O95633)
Quantitative readout: 0.0345
--
Compound: O=C1C[C@@H](O)[C@@H](O)[C@@H]2[C@@H]3C(=O)N(Cc4ccccc4)C(=O)[C@@H]3CC[C@H]12
Measured on: Follistatin-related protein 3 (Homo sapiens) (UniProt O95633)
Quantitative readout: 0.643
--
Compound: C[C@@H]1CC[C@H]2C(=O)O[C@@H](CN=[N+]=[N-])CN2[C@H]1c1ccc(Br)cc1
Measured on: Follistatin-related protein 3 (Homo sapiens) (UniProt O95633)
Quantitative readout: 0.345
--
Compound: O=C(NN=C1C[C@@H](O)[C@@H](O)[C@@H]2[C@@H]3C(=O)N(Cc4ccc5c(c4)OCO5)C(=O)[C@@H]3CC[C@@H]12)OCc1ccccc1
Measured on: Follistatin-related protein 3 (Homo sapiens) (UniProt O95633)
Quantitative readout: -0.408
--
Compound: COCC#Cc1ccc([C@@H]2N[C@H](C(=O)O)CC[C@H]2C)cc1
Measured on: Follistatin-related protein 3 (Homo sapiens) (UniProt O95633)
Quantitative readout: 0.246
--
Compound: CC(C)=NOC[C@@H](O)[C@H]1O[C@@H]2OC(C)(C)O[C@@H]2[C@H]1O
Measured on: Follistatin-related protein 3 (Homo sapiens) (UniProt O95633)
Quantitative readout: 0.434
--
Compound: C[C@H]1CC[C@H]2C(=O)N[C@H](Cc3ccccc3)C(=O)N2[C@@H]1c1ccccc1
Measured on: Follistatin-related protein 3 (Homo sapiens) (UniProt O95633)
Quantitative readout: 0.185
--
Compound: CCN(CC)CC(O)CN1CCCCc2nc(C)c(C)cc21 (stereo unspecified)
Measured on: Follistatin-related protein 3 (Homo sapiens) (UniProt O95633)
Quantitative readout: 0.42
--
Compound: CC1(C)O[C@H]2O[C@H]([C@H](O)CON=C3[C@H]4CCn5c(=O)n(-c6ccccc6)c(=O)n5[C@H]4[C@H](O)[C@@H]4O[C@H]34)[C@H](O)[C@H]2O1
Measured on: Follistatin-related protein 3 (Homo sapiens) (UniProt O95633)
Quantitative readout: 0.422
--
Compound: C[C@]12CCC3c4ccc(OCC5CO5)cc4CCC3C1CC[C@@H]2O (stereo partly specified)
Measured on: Follistatin-related protein 3 (Homo sapiens) (UniProt O95633)
Quantitative readout: 0.239
--
Compound: CC(CCN1CCCc2nc(C)c(C)cc21)=NO[C@H](C)c1cn([C@@H]2COC[C@H]2O)nn1
Measured on: Follistatin-related protein 3 (Homo sapiens) (UniProt O95633)
Quantitative readout: 0.884

----------
Target: NADPH oxidase 5 (Homo sapiens) (UniProt Q96PH1)
Sequence (Q96PH1 whole entry, looked up): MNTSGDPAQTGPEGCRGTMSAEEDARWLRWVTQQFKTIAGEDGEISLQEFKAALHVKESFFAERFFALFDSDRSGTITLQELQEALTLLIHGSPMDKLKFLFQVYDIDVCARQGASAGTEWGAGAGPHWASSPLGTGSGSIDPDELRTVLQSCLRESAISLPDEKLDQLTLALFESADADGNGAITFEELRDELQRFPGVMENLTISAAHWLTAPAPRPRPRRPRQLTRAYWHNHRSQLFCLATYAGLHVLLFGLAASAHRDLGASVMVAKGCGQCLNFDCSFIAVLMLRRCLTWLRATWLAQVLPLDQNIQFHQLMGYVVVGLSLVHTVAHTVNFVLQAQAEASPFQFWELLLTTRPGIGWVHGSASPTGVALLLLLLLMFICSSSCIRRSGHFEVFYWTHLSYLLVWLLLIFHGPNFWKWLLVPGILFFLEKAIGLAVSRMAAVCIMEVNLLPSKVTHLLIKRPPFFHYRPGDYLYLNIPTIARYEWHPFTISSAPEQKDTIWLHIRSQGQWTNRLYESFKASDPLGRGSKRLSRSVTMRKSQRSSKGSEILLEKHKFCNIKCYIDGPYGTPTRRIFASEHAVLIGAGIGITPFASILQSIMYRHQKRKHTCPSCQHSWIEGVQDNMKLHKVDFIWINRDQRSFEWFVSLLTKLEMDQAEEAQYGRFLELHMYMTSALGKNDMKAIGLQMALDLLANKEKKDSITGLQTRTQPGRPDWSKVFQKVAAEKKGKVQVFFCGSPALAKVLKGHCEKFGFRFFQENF
Assay: NOX5-dependent H2O2 signal modulators, primary screen, NOX inhibitor project, cell-based, HEK293-NOX5, Amplex Red fluorescence (AID 1161)
Settings: HEK293-NOX5, ionomycin, 45 min, higher = more signal

Compound: CCCC[C@H]1CN2[C@@H](CC[C@@H](C)[C@@H]2c2ccc(Br)cc2)C(=O)O1
z-score: 1.47
//
Compound: COC(=O)[C@H](C)NC(=O)CCC1CC(OC(=O)NCc2cccc3ccccc23)CC2(CCCC(COC(=O)NCCC(C)C)O2)O1 (stereo partly drawn)
z-score: 1.52
//
Compound: CCN1C(C)=C(C(=O)OC)[C@@H](c2ccccc2)N2C(=O)[C@](O)(C(=O)OC)CC(C(C)=O)=C12
z-score: 0.697
//
Compound: CCc1cc2c(nc1CC)CCN(CCC(C)=NOC[C@@H](C)[C@H](OCc1ccccc1)C(C)C)C2
z-score: -4.09
//
Compound: O=C1CCCC=C1C(O)COCc1ccccc1 (stereo not drawn)
z-score: 0.63
//
Compound: O=C1C=C[C@@H](O)[C@@H]2[C@@H]3C(=O)N(Cc4ccc5c(c4)OCO5)C(=O)[C@@H]3CC[C@@H]12
z-score: -0.372
//
Compound: CC(=O)OC[C@H]1O[C@@H](ON=C(C)CCC(=O)OC[C@H]2O[C@H](C#Cc3ccccc3)C=C[C@@H]2Oc2ccc(C)cc2)[C@H](OC(C)=O)[C@@H](OC(C)=O)[C@@H]1OC(C)=O
z-score: 1.38
//
Compound: CCOC(=O)[C@H](CC(C)C)NC(=O)CCC1CC(OC(=O)NCCc2ccc(F)cc2)CC2(CCCC(COC(=O)NCc3cccc(C(F)(F)F)c3)O2)O1 (stereo partly drawn)
z-score: 0.401

----------
Molecular target: Alpha-bungarotoxin (Bungarus multicinctus)
Assay: alpha-bungarotoxin binders on microarray, profiling panel, artefact control for SMM control protein annotation, biochemical, small-molecule microarray, Alexa647 label, 635/667 nm fluorescence (AID 1117)
Settings: alpha-BTX-A647 binding fluorescence, higher = more signal
Measured composite z-score by item
Endpoint label: composite z-score

Structure as smiles: C#CCCCON=C1[C@H]2CCn3c(=O)n(Cc4cc5c(cc4Cl)OCO5)c(=O)n3[C@H]2[C@H](O)[C@@H]2O[C@H]12
Quantitative readout: 0.499
--
Structure as smiles: COc1ccc2c(c1)O[C@@H](c1cccc(C(F)(F)F)c1)[C@H](O)C2=O
Quantitative readout: 0.375
--
Structure as smiles: CON=C[C@@H](OC)[C@H](C)C=CCC(=O)OC
Quantitative readout: -0.023
--
Structure as smiles: CO[C@H]1COC(=O)CCC[C@H](C)[C@H](OC)COC(=O)CC=C[C@@H]1C
Quantitative readout: -0.0936
--
Structure as smiles: COC(OC)[C@@H](C)[C@H](OC)[C@@H](C)[C@H](OC)c1ccccc1
Quantitative readout: -0.0469
--
Structure as smiles: COC(=O)CC=C[C@@H](C)[C@@H](C=NOC[C@@H](C)[C@H](OCc1ccccc1)C(C)C)OC
Quantitative readout: 0.215
--
Structure as smiles: CC(C)CON=C1C[C@@H](O)[C@@H](O)[C@@H]2[C@@H]3C(=O)N(c4ccc(F)cc4F)C(=O)[C@@H]3CC[C@@H]12
Quantitative readout: 0.421
--
Structure as smiles: CC(C)=CCCC(C)=CCON=C1C[C@@H](O)[C@@H](O)[C@@H]2[C@@H]3C(=O)N(c4cccc(Oc5ccccc5)c4)C(=O)[C@@H]3CC[C@H]12
Quantitative readout: -0.0168

----------
Experiment: small-molecule binders of probe aNOTCH3, primary screen, biochemical, small-molecule microarray, 635/667 nm fluorescence (AID 1120);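 note: probe is a biotin-tagged antibody raised against NOTCH3 rather than NOTCH3 protein; score merges spot fluorescence near 667 nm with spot signal to noise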
Conditions: higher = more signal
Use Fulfilled when the recorded composite z-score is no lower than -0.05; use Not fulfilled when it is lower.

Compound: C#CCCCON=C1C[C@@H](O)[C@@H](O)[C@@H]2[C@@H]3C(=O)N(CC)C(=O)[C@@H]3CC[C@H]12
Category: Not fulfilled

Compound: O=C1[C@H]2[C@H]3[C@H](O)[C@H](O)CC(=NO[C@@H]4O[C@H](CO)[C@@H](O)[C@H](O)[C@H]4O)[C@H]3CC[C@H]2C(=O)N1c1ccc(F)cc1F
Category: Fulfilled

Compound: CCOC(=O)CCN1C(=O)[C@H]2[C@H]3[C@H](O)[C@H](O)CC(=NO[C@@H]4O[C@H](CO)[C@@H](O)[C@H](O)[C@H]4O)[C@@H]3CC[C@H]2C1=O
Category: Fulfilled

Compound: CC(=O)OC[C@H]1O[C@H](CC=NOC[C@@H](O)COCc2ccco2)C=C[C@@H]1OC(C)=O
Category: Fulfilled

Compound: CCCNC(=O)OC[C@H]1O[C@H](CCON=C2c3cc(OC)ccc3O[C@H](c3cccc(OC)c3)[C@H]2O)C=C[C@@H]1Oc1ccc(OC)cc1
Category: Fulfilled

Compound: O=C1[C@H]2[C@H]3[C@H](O)[C@H](O)CC(=NOC[C@@H](O)COCc4ccco4)[C@@H]3CC[C@H]2C(=O)N1c1cccc(Oc2ccccc2)c1
Category: Not fulfilled

Compound: COC(=O)C1=C(C)N(Cc2ccccc2)C2=C3C(=O)OCC[C@@H]3[C@@](O)(C(=O)OC)C(=O)N2[C@@H]1c1ccccc1
Category: Fulfilled

Compound: COC(OC)[C@@H](C)[C@H](OC)[C@@H](C)[C@H](OC)c1ccccc1
Category: Not fulfilled

Compound: O=C1C[C@@H](O)[C@@H](O)[C@@H]2[C@@H]3C(=O)N(C4CCCCC4)C(=O)[C@@H]3CC[C@@H]12
Category: Not fulfilled

Compound: CC[C@@H](c1ccccc1)n1c(=O)n2n(c1=O)[C@H]1[C@H](O)[C@@H]3O[C@@H]3C(=NOCc3ccccc3)[C@H]1CC2
Category: Fulfilled

Compound: C#CCCCON=C1C[C@@H](O)[C@@H](O)[C@@H]2[C@@H]3C(=O)N(C[C@@H]4CCCO4)C(=O)[C@@H]3CC[C@@H]12
Category: Fulfilled

Compound: CC(C)CON=C1C[C@@H](O)[C@@H](O)[C@@H]2[C@@H]3C(=O)N(Cc4ccccc4)C(=O)[C@@H]3CC[C@H]12
Category: Not fulfilled

Compound: CCN1C(=O)[C@H]2[C@H]3[C@H](O)[C@H](O)CC(=NO[C@@H]4O[C@H](COC(C)=O)[C@@H](OC(C)=O)[C@H](OC(C)=O)[C@H]4OC(C)=O)[C@@H]3CC[C@H]2C1=O
Category: Fulfilled

Compound: COCCNC(=O)OCC1CCCC2(CC(OC(=O)NCc3cccc4ccccc34)CC(CCC(=O)N[C@@H](C)C(=O)OC)O2)O1 (some centres undefined)
Category: Fulfilled
